Catalogue of molecules with associated Cell viability at 300 nM (%)
Tested on: MRC5 cells
procedure.text: Cell viability assay in MRC5 cells (MTT)
measurement.context: 300 nM
# number only, unit % dropped from output

COC(=O)c1cc2c(cc1C)/C(=C(/Nc1ccc(C(=O)N(OCCN3CCNCC3)C(C)C)cc1)c1ccccc1)C(=O)N2: 93.1
COC(=O)c1cc2c(cc1C)/C(=C(/Nc1ccc(S(=O)(=O)N(C)OCCN(C)CCO)cc1)c1ccccc1)C(=O)N2: 100.9
COC(=O)c1ccc2c(c1)NC(=O)/C2=C(\Nc1ccc(C(=O)NOCCN2CC[C@H](N(C)C)C2)cc1)c1ccccc1: 90.8
COC(=O)c1cc2c(cc1C)/C(=C(/Nc1ccc(C(=O)NOCCN3CCN(C)CC3)cc1)c1ccccc1)C(=O)N2: 88.5

Value of Cell viability at 300 nM (%) reported for the molecule COCCN1CCN(CCONC(=O)c2ccc(N/C(=C3\C(=O)Nc4cc(C(=O)OC)ccc43)c3ccccc3)cc2)CC1 is 109.5

Record summary for COC(=O)c1ccc2c(c1)NC(=O)/C2=C(\Nc1ccc(C(=O)NOCCN2CCC(C#N)CC2)cc1)c1ccccc1 : reported Cell viability at 300 nM (%) = 91.8

Memo: COC(=O)c1ccc2c(c1)NC(=O)/C2=C(\Nc1ccc(C(=O)NOCCN2CCOCC2)cc1)c1ccccc1 , reported Cell viability at 300 nM (%): 101.7

Measured Cell viability at 300 nM (%) of COC(=O)c1cc2c(cc1C)/C(=C(/Nc1ccc(C(=O)NOCCN3CCC(OC)CC3)cc1)c1ccccc1)C(=O)N2 : 50.9

Entry COC(=O)c1cc2c(cc1C)/C(=C(/Nc1ccc(S(=O)(=O)NOCCN(C)C)cc1)c1ccccc1)C(=O)N2 — recorded Cell viability at 300 nM (%) = 121

The molecule listed as CNC(=O)CN1CCN(CCONC(=O)c2ccc(N/C(=C3\C(=O)Nc4cc(C(=O)OC)c(C)cc43)c3ccccc3)cc2)CC1 has a reported Cell viability at 300 nM (%) of 104

Reported Cell viability at 300 nM (%) for COC(=O)c1ccc2c(c1)NC(=O)/C2=C(\Nc1ccc(C(=O)NOCCN(C)C)c(F)c1)c1ccccc1 was 81.7

The value of Cell viability at 300 nM (%) measured for the molecule COC(=O)c1cc2c(cc1C)/C(=C(/Nc1ccc(C(=O)NOCCCN3CCC(OC)CC3)cc1)c1ccccc1)C(=O)N2 turned out to be 111.1

Noted for COC(=O)c1cc2c(cc1C)/C(=C(/Nc1ccc(C(=O)N(C)OCCN(C)CCO)cc1)c1ccccc1)C(=O)N2 : its Cell viability at 300 nM (%) reads 121

Reported Cell viability at 300 nM (%) ( COC(=O)c1cc2c(cc1C)/C(=C(/Nc1ccc(C(=O)N(C)OCCN3CCN[C@H](C)C3)cc1)c1ccccc1)C(=O)N2 ) = 110.3

----------
procedure.text: PAMPA permeability assay
Type: in vitro ADME
measurement.context: PAMPA, pH 7, pH 7, 10 μM, 5 hr
recorded.metric: Papp at 5 h, 10 μM (×10⁻⁶ cm/s)
Your answer should be a plain number; it is taken to be in ×10⁻⁶ cm/s.

COC(=O)c1cc2c(cc1C)/C(=C(/Nc1ccc(C(=O)NOCCCN3CCN(C)CC3)cc1)c1ccccc1)C(=O)N2: 0.0679
COC(=O)c1ccc2c(c1)NC(=O)/C2=C(\Nc1ccc(C(=O)N(C)OCCN2CCN(C)CC2)cc1)c1ccccc1: 0.434
COC(=O)c1cc2c(cc1C)/C(=C(/Nc1ccc(S(=O)(=O)NOCCN(C)C)cc1)c1ccccc1)C(=O)N2: 0.22
COC(=O)c1cc2c(cc1C)/C(=C(/Nc1ccc(C(=O)NOCCN3CCN(C)CC3)c(C)c1)c1ccccc1)C(=O)N2: 0.00407
COC(=O)c1ccc2c(c1)NC(=O)/C2=C(\Nc1ccc(C(=O)NOCCN2CC[C@H](N(C)C)C2)cc1)c1ccccc1: 0.00569
COC(=O)c1ccc2c(c1)NC(=O)/C2=C(\Nc1ccc(C(=O)NOCCN2CCS(=O)(=O)CC2)cc1)c1ccccc1: 0.00258
COC(=O)c1ccc2c(c1)NC(=O)/C2=C(\Nc1ccc(S(=O)(=O)NOCCN(C)C)cc1)c1ccccc1: 0.0756
COC(=O)c1ccc2c(c1)NC(=O)/C2=C(\Nc1ccc(C(=O)NOCCN2CCNC(=O)C2)cc1)c1ccccc1: 0.0264
COC(=O)c1cc2c(cc1C)/C(=C(/Nc1ccc(S(=O)(=O)N(C)OCCN(C)CCO)cc1)c1ccccc1)C(=O)N2: 24.8
COC(=O)c1ccc2c(c1)NC(=O)/C2=C(\Nc1ccc(C(=O)NOCCCN(C)C)cc1)c1ccccc1: 0.00329

Just so you know, measured Papp at 5 h, 10 μM for COC(=O)c1cc2c(cc1C)/C(=C(/Nc1ccc(S(=O)(=O)NOCCN3CCN(C)CC3)cc1)c1ccccc1)C(=O)N2 came out at 0.0261

So, COC(=O)c1cc2c(cc1C)/C(=C(/Nc1ccc(C(=O)NOCCN3CCC(N(C)C)CC3)cc1)c1ccccc1)C(=O)N2 ? Its Papp at 5 h, 10 μM was 0.0566

Item: COC(=O)c1ccc2c(c1)NC(=O)/C2=C(\Nc1ccc(C(=O)N(C)OCCN2CCN(C)CC2)c(C)c1)c1ccccc1 | Papp at 5 h, 10 μM: 0.424

Looking up COC(=O)c1ccc2c(c1)NC(=O)/C2=C(\Nc1ccc(C(=O)N(CCN(C)C)OC)cc1)c1ccccc1 , I found its Papp at 5 h, 10 μM recorded as 20

GET /value?item= COC(=O)c1cc2c(cc1C)/C(=C(/Nc1ccc(C(=O)NOCCN3CCN(C)CC3)cc1)c1ccccc1)C(=O)N2 &field=Papp at 5 h, 10 μM returns 0.00649

----------
Form field: Ki (one value per entry).
study.target: UniProt P09619
measurement.context: read-out: Ki PDGFRβ; mean, n = 2 unless otherwise indicated
Could you give me the number in nM? Just the number is fine.

Worked cases, Ki given:
COC(=O)c1ccc2c(c1)NC(=O)/C2=C(\Nc1ccc(C(=O)NOCCN2CCC(N(C)C)CC2)cc1)c1ccccc1 [Example 47]: 10.2
COC(=O)c1cc2c(cc1C)/C(=C(/Nc1ccc(S(=O)(=O)NOCCN3CCN(C)CC3)cc1)c1ccccc1)C(=O)N2 [Example 2]: 19.2

Per the record, COC(=O)c1ccc2c(c1)NC(=O)/C2=C(\Nc1ccc(C(=O)NOCCN2CCCCC2)cc1)c1ccccc1 [Example 8] has Ki of 27.8

Entry COC(=O)c1ccc2c(c1)NC(=O)/C2=C(\Nc1ccc(C(=O)N(C)OCCN2CCN(C)CC2)cc1)c1ccccc1 [Example 14] — recorded Ki = 11.1

----------
Below is a list of entries, each paired with its recorded MRT value.
procedure.text: Pharmacokinetic measurements in rats (intravenous and intra-tracheal dosing)
Format: in vivo
measurement.context: male, CD, plasma, iv; rat, i.v. dosing
Remember to follow the number with its unit.

COC(=O)c1cc2c(cc1C)/C(=C(/Nc1ccc(C(=O)NOCCN3CCN(C)CC3)cc1)c1ccccc1)C(=O)N2: 7.9 h
COC(=O)c1ccc2c(c1)NC(=O)/C2=C(\Nc1ccc(C(=O)NOCCN2CCN(C)CC2)cc1)c1ccccc1: 2.4 h
COC(=O)c1ccc2c(c1)NC(=O)/C2=C(\Nc1ccc(C(=O)NOCCN(C)C)cc1)c1ccccc1: 3 h

Continue with the compound presented below.
Reported MRT of COC(=O)c1cc2c(cc1C)/C(=C(/Nc1ccc(C(=O)NOCCN(C)C)c(C)c1)c1ccccc1)C(=O)N2 : 8 h

----------
Tested on: MRC5 cells
procedure.text: Cell viability assay in MRC5 cells (MTT)
measurement.context: 100 nM
Recorded measurements of Cell viability at 100 nM (%), one per entry
Please reply with the bare figure in % and do not write the unit itself.

COC(=O)c1cc2c(cc1C)/C(=C(/Nc1ccc(C(=O)N(C)OCCN3CCN[C@@H](C)C3)cc1)c1ccccc1)C(=O)N2: 80.7

Consider COC(=O)c1cc2c(cc1C)/C(=C(/Nc1ccc(C(=O)NOCCN3CCC(N(C)C)CC3)cc1)c1ccccc1)C(=O)N2 . Its measured Cell viability at 100 nM (%) is 107.5

Cell viability at 100 nM (%) for COC(=O)c1cc2c(cc1C)/C(=C(/Nc1ccc(C(=O)NOCCN3CCN(C)CC3)c(C)c1)c1ccccc1)C(=O)N2 is 110.2

# molecule COC(=O)c1cc2c(cc1C)/C(=C(/Nc1ccc(S(=O)(=O)NOCCN(C)C)cc1)c1ccccc1)C(=O)N2 ; its Cell viability at 100 nM (%) = 132.6

----------
study.target: PDGFRβ (Homo sapiens (Human), UniProt P09619)
Sequence (P09619 33-1106): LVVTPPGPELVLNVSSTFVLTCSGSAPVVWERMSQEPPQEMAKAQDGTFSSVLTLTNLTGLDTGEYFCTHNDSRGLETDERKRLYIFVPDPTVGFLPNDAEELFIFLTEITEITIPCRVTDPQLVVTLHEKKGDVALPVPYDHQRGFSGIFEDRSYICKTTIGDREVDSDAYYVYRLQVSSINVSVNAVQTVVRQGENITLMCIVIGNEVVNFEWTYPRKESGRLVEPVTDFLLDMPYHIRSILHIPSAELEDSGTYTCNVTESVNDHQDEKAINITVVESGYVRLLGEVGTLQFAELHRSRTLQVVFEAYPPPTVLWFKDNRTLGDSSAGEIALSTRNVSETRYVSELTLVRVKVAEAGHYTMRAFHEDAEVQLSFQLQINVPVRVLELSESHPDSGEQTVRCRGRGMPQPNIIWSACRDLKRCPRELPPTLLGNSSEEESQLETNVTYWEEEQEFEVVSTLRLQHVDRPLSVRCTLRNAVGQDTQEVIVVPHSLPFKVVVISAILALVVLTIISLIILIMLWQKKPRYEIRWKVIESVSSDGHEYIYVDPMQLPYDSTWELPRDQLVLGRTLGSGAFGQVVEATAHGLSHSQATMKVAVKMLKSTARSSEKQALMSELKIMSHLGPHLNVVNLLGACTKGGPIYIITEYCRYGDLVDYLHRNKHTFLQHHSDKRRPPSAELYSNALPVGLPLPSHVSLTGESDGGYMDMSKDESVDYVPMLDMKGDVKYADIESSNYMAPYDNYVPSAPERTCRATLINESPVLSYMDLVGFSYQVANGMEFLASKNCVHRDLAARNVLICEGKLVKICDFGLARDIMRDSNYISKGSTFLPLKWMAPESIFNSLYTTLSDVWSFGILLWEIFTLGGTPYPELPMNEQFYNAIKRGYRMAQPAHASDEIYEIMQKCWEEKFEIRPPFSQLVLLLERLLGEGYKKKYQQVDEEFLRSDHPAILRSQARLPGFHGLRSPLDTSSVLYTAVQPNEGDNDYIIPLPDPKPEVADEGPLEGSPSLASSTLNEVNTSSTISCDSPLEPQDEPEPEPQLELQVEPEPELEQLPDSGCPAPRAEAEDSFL
measurement.context: read-out: Ki PDGFRβ; mean, n = 2 unless otherwise indicated
# Lookup of reported pKi keyed by entry
When answering, recall that pKi equals minus log10 of the concentration in mol/L, and write that number alone.

Study these solved cases before continuing.
COC(=O)c1ccc2c(c1)NC(=O)/C2=C(\Nc1ccc(C(=O)NOCCN2CCOCC2)c(C)c1)c1ccccc1: 7.85
COC(=O)c1cc2c(cc1C)/C(=C(/Nc1ccc(C(=O)N(C)OCCN3CC4CCC(C3)N4)cc1)c1ccccc1)C(=O)N2: 7.74
COC(=O)c1ccc2c(c1)NC(=O)/C2=C(\Nc1ccc(C(=O)NOCCN2CCN(CCO)CC2)cc1)c1ccccc1: 8.27

// sample COC(=O)c1ccc2c(c1)NC(=O)/C2=C(\Nc1ccc(C(=O)N(C)OCCN(C)C)c(C)c1)c1ccccc1 , its pKi was 8.00
